# Tested on: ERBB4;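 further: KINOMEscan kinase panel screen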
# assayContext: concentration: 1 μM, replicates: in singlicate; n = 1
Threshold 20%. %Inh below it: Met. %Inh at it or above: Not met.

>>> class("CCCc1ccc(S(=O)(=O)NC2CCN(c3ccnc(Nc4ccc(OC)cc4)n3)C2)cc1 (stereo not shown)")
"Not met"
>>> class("c1ccc(-c2ccc3c(-c4ccnc(Nc5ccc6c(c5)OCCO6)n4)cnn3n2)cc1")
"Met"
>>> class("O=C(Nc1ccccc1)Nc1ccc(Oc2ccc3nccn3n2)cc1")
"Met"
>>> class("CS(=O)(=O)CCNCc1nc(-c2ccc3ncnc(Nc4ccc(OCc5cccc(F)c5)c(Cl)c4)c3c2)cs1.Cl")
"Not met"
>>> class("NC(=O)c1sc(-n2cnc3ccccc32)cc1OCc1ccccc1F")
"Not met"
>>> class("Nc1nccc2scc(-c3ccc4c(c3)CCN4C(=O)Cc3cc(F)ccc3F)c12")
"Not met"
>>> class("Clc1ccc(-c2cc(-c3c[nH]nc3-c3ccccn3)ccn2)cc1")
"Met"
